I'd appreciate it if you could supply GI50 values for the items below.
Tested on: AN3_CA
protocol: CellTiterblue viability, 72 hr, AN3_CA
Format: cell-based
conditions.used: Homo sapiens, AN3-CA, AN3_CA cells
Method: A number of studies were performed to analyze the consequences of tyrosine kinase inhibition in cell lines. To do this, 1000 cells are seeded in 27 μl/well in 384-well microplates, which are then placed in a humidified CO2 incubator at 37° C. overnight. […] Plates are returned to the incubator for 3 hr, after which it is fluorescence measurements are read on the Victor X3 plate reader (Perkin Elmer). Data are analyzed using Excel (Microsoft), and GI50 values are determined using Prism (Graphpad).

Query :: Under AN3_CA: GI50 value of CCN1CCN(c2ccc(Nc3cc(Oc4cc(F)c5[nH]c(C)cc5c4F)ncn3)cc2)CC1 [Compound 49] ?
Result :: > 500 nM

Query :: Under AN3_CA: GI50 value of CC(=O)Nc1ccc(Nc2cc(Oc3ccc4[nH]c(C)cc4c3F)ncn2)cc1 [Example 7] ?
Result :: > 500 nM

Query :: Under AN3_CA: GI50 value of Cc1cc2c(F)c(Oc3cc(Nc4ccc(N5CCOCC5)cc4)ncn3)ccc2[nH]1 [Example 9] ?
Result :: > 500 nM

Query :: Under AN3_CA: GI50 value of Cc1cc2c(F)c(Oc3cc(Nc4ccc(N5CCN(C)CC5)c(F)c4)ncn3)ccc2[nH]1 [Example 14] ?
Result :: 483 nM

Query :: Under AN3_CA: GI50 value of CCN1CCN(c2ccc(Nc3ncnc(Oc4ccc5c(cc(C)n5C)c4F)c3C#N)cc2)CC1 [Compound 65] ?
Result :: > 500 nM

Query :: Under AN3_CA: GI50 value of C/C=C/c1cc(Nc2cc(Oc3ccc4[nH]c(C)cc4c3F)ncn2)n[nH]1 [Example 17] ?
Result :: > 500 nM

Query :: Under AN3_CA: GI50 value of Cc1cc2c(F)c(Oc3ncnc(Nc4ccc(N5CCN(C)CC5)cn4)c3N)ccc2[nH]1 [Compound 47] ?
Result :: > 500 nM

Query :: Under AN3_CA: GI50 value of Cc1cc2c(F)c(Oc3cc(Nc4cc(-c5ccccn5)[nH]n4)ncn3)ccc2[nH]1 [Example 6] ?
Result :: 573 nM

====

test.system: KDR kinase (Homo sapiens)
Construct: purchased Millipore (KinaseProfiler Service)
Sequence (P35968 20-1356): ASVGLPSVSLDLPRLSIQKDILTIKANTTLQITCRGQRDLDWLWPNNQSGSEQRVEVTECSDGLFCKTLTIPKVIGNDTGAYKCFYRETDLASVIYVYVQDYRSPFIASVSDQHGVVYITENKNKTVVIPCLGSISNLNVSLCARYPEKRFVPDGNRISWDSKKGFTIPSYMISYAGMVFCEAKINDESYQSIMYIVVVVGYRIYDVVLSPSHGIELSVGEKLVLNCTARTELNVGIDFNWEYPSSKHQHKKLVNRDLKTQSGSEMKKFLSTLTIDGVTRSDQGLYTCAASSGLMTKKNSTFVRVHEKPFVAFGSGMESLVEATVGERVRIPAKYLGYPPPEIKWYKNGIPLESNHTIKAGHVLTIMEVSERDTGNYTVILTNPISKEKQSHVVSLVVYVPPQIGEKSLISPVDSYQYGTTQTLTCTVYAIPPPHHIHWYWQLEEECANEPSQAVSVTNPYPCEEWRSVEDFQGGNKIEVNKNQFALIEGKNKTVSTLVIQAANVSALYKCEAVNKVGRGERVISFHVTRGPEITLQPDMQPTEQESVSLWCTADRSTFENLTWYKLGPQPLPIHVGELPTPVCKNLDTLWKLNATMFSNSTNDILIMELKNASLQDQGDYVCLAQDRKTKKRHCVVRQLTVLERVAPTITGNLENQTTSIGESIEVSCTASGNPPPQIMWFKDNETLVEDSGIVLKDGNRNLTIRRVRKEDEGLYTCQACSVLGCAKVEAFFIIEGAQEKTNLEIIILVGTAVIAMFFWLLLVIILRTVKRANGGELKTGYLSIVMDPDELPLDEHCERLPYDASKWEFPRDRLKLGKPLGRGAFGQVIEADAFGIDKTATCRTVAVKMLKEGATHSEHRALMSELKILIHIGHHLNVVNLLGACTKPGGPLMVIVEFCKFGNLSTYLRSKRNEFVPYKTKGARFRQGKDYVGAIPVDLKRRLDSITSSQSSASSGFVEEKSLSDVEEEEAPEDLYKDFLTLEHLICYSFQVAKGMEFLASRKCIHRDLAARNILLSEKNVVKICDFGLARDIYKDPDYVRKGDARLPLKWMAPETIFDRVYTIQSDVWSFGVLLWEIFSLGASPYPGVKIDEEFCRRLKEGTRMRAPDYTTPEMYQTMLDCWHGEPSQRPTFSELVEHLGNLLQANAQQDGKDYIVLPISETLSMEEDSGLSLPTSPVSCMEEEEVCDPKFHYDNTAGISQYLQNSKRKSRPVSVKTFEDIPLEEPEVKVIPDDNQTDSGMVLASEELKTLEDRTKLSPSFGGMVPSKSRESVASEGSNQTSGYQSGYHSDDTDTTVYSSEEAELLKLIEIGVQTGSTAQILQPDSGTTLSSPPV
protocol: KinaseProfiler kinase inhibition assay, KDR
Format: biochemical
conditions.used: 1 μM compound
quantity.measured: inhibition at 1 µM (%)
Give a bare numeral; the unit % is implied.

Query :: Under KDR kinase (Homo sapiens): inhibition at 1 µM value of Cc1cc2c(F)c(Oc3ncnc(Nc4ccc(N5CCN(C)CC5)cc4)c3N)ccc2[nH]1 [Compound 46] ?
Result :: 5

Query :: Under KDR kinase (Homo sapiens): inhibition at 1 µM value of CCN1CCN(c2ccc(Nc3ncnc(Oc4ccc5[nH]c(C)cc5c4F)c3C#N)nc2)CC1 [Compound 55] ?
Result :: 91

Query :: Under KDR kinase (Homo sapiens): inhibition at 1 µM value of CCN1CCN(c2ccc(Nc3cc(Oc4cc(F)c5[nH]c(C)cc5c4F)ncn3)cc2)CC1 [Compound 49] ?
Result :: 96

Query :: Under KDR kinase (Homo sapiens): inhibition at 1 µM value of Cc1cc2c(F)c(Oc3cc(Nc4ccc(N5CCNCC5)cc4)ncn3)ccc2[nH]1 [Example 11] ?
Result :: 96

All figures here come from patent US10766879B2.
